# Test Method Notes: gradient 5% acetonitrile 3 min, to 50% in 2 min, to 85% in 15 min, held 3 min, 100 µL/min
# Measurement Setup: column: Zorbax Extend-C18 2.1 x 50 mm; eluents: water / acetonitrile, 0.1% formic acid
The label true is reserved for RP-LC retention time strictly under 900 s; false covers values equal to or above it.

Query: Here's an entry: "Brc1ccc(-c2noc(Cc3nc(-c4ccccc4)cs3)n2)cc1" . Is its RP-LC retention time below 900 s?
Response: false

Query: Please check: RP-LC retention time for "C=CCNC(=O)c1nc(C(=O)N2CCCCCC2)cs1" , strictly under 900 s or not?
Response: true

Query: Answer whether the compound "COc1ccc(C)cc1N(C)C(=O)Cn1ccc2c(=O)n(C)c(=O)n(C)c21" has RP-LC retention time strictly less than 900 s
Response: true

Continuing:
Query: Is the reported RP-LC retention time for "CN(c1cccc(Cl)c1)S(=O)(=O)c1cc2n(c1)CCCNC2=O" strictly below 900 s?
Response: true

Query: hey, is RP-LC retention time for O=C(CN1C(=O)C(C(=O)N2CCCC2)Sc2ccccc21)Nc1ccc(F)c(F)c1 (stereo not given) lower than 900 s or not?
Response: false

Query: Report whether reported RP-LC retention time is lower than 900 s (strictly) for "COc1ccc(CSc2nnc3c(S(=O)(=O)N4CCCCC4)cccn23)cc1"
Response: true

Values were extracted from the METLIN SMRT retention time set (Domingo-Almenara et al. 2019).
